Reference source for all entries: patent US20260144882A1

Biological target: T1, human Nectin-4 extracellular antigen hNectin-4-His (human, UniProt Q96NY8 32-349)
T1 construct: C-terminal 8xHis tag included
T1 sequence: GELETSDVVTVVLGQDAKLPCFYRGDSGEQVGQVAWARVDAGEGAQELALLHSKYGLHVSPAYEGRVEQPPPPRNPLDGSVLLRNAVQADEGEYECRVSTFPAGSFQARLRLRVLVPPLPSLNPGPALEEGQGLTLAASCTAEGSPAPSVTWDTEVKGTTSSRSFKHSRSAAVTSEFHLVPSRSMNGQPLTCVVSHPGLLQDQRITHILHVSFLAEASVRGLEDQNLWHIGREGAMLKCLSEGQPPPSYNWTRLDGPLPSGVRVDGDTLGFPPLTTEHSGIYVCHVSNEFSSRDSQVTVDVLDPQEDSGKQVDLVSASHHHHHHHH
Assay: SPR, antibody on Protein A chip, 1:1 fit
pKd: −log10 of the molar value.
The binders listed here are annotated with their pKd.

binder	pKd
antibody 10F4-1C3 (antibody, human IgG1, kappa, V domains shown) VH: EVQLVESGGGLVQPGGSLRLSCAASGYSFSDYWMSWVRQAPGKGLEWVSSIKQTGGVKHYADSVKGRFTISRDNSKNTLYLQMNSLRAEDTAVYYCAREYSDVVDYVSVRTPLDYWGQGTLVTVSS VL: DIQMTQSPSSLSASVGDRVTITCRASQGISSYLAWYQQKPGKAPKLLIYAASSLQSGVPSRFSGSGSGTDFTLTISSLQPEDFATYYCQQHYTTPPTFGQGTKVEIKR	9.23
antibody 1F3-1E4 (antibody, human IgG1, kappa, V domains shown) VH: EVQLVESGGGLVQPGGSLRLSCAASGFSFGTYGMSWVRQAPGKGLEWVSRISGDSANIRYADSVKGRFTISRDNSKNTLYLQMNSLRAEDTAVYYCARAELLAFDVYTASDYWGQGTLVTVSS VL: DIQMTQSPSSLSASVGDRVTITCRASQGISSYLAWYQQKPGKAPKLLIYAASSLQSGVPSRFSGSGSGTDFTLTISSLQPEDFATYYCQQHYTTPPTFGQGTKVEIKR	9.37
antibody 1G8-2G8 (antibody, human IgG1, kappa, V domains shown) VH: EVQLVESGGGLVQPGGSLRLSCAASGFNFTNYAMSWVRQAPGKGLEWVSRISTYGDTTHYADSVKGRFTISRDNSKNTLYLQMNSLRAEDTAVYYCARQTEDRSYGYDLDYWGQGTLVTVSS VL: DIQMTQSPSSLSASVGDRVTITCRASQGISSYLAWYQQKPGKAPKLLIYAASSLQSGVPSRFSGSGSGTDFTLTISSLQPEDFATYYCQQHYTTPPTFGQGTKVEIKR	8.73
antibody 1G8-2F2 (antibody, human IgG1, kappa, V domains shown) VH: EVQLVESGGGLVQPGGSLRLSCAASGDIFGSYAMSWVRQAPGKGLEWVSRISSHGASRDYADSVKGRFTISRDNSKNTLYLQMNSLRAEDTAVYYCARQTEDRSYGYDLDYWGQGTLVTVSS VL: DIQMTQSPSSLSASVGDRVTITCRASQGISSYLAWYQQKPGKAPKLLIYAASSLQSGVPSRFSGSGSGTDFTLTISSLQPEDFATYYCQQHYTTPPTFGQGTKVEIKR	8.67
antibody 10F4-2C6 (antibody, human IgG1, kappa, V domains shown) VH: EVQLVESGGGLVQPGGSLRLSCAASGFNFGGFDMSWVRQAPGKGLEWVSGIKQYKGYTSYADSVKGRFTISRDNSKNTLYLQMNSLRAEDTAVYYCAREYSDVVDYVSVRTPLDYWGQGTLVTVSS VL: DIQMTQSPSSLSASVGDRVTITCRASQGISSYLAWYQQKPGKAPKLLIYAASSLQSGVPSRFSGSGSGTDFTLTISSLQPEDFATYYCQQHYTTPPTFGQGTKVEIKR	9.55
